Values from PubChem BioAssay (NCATS)

assay: qHTS for Inhibitors of the Functional Ribonucleoprotein Complex (vRNP) of Lassa (LASV) Arenavirus: Viability assay - alamar blue signal for LASV Primary Screen (AID 1347083); details: cell viability, alamar blue fluorescence (LASV minigenome counter-screen); series mostly up to 57.5 µM; note: nearly all actives have a fitted effect of over 80% in size
Inconclusive results are not listed. Activity calls are given as the source filed them. Calls come from the whole dose curve; tested in HEK293 reporter line.
Classes to choose from: active, inactive

Request: What classification did C=C(C)C1CC=C(C(=O)O)CC1 (stereo unspecified) end up with in this test?
Result: inactive

Request: What classification did COC(=O)c1c(C)[nH]c(C)c1C(=O)c1ccccc1Cc1ccccc1 end up with in this test?
Result: inactive

Request: What classification did COc1ccc(C=CC(=O)c2ccc(OC)c(OC)c2O)cc1OC end up with in this test?
Result: inactive

Request: What classification did COc1ccc(CNC(=S)NCc2ccc(OC)cc2)cc1 end up with in this test?
Result: inactive

Request: What classification did COC(=O)C1=CO[C@@H](O)[C@@H]2C(CO)=CC[C@@H]12 end up with in this test?
Result: inactive

Request: What classification did CC(C)c1cccc(O)c1 end up with in this test?
Result: inactive

Request: What classification did COc1cc(Cl)cn2c(-c3cccc(NC4CNC4)n3)cnc12 end up with in this test?
Result: active

Request: What classification did C/C=C(/C)C(=O)O[C@H]1CC(C)=CC(=O)[C@@]2(C)CC[C@@](O)(C(C)C)[C@H]12 end up with in this test?
Result: inactive

Request: What classification did C[C@@H](NCc1cc2ccccc2[nH]1)c1cccc2ccccc12 end up with in this test?
Result: inactive

Request: What classification did C=C1[C@H](n2cnc3c(=O)[nH]c(N)nc32)C[C@H](O)[C@H]1CO end up with in this test?
Result: inactive

Request: What classification did CC(C)[C@H](O)C(=O)N[C@@H](C)C(=O)N[C@@H]1C(=O)N(C)CCc2ccccc21 end up with in this test?
Result: inactive

###

test: Primary qHTS for Vero E6 cytotoxicity: counterscreen for inhibitors of SARS-S pseudo-typed particle cell entry (AID 1479150); details: cell viability; at 57.1 µM (top of the series) unless noted; series mostly up to 57.1 µM
Inconclusive results are not listed. Active and inactive are the calls of the source. Calls follow the shape of the full dose curve.
quantity.kind: outcome

compound: Cc1ncc(C[n+]2csc(CCO)c2C)c(N)n1
quantity.kind: outcome
reported.result: inactive
--
compound: CC(C(=O)O)c1ccc(C(=O)c2cccs2)cc1 (centres undefined)
quantity.kind: outcome
reported.result: inactive
--
compound: COC(=O)[C@H]1[C@H]2C[C@@H]3c4[nH]c5ccccc5c4CCN3C[C@H]2C[C@@H](OC(=O)c2cc(OC)c(OC)c(OC)c2)[C@@H]1OC
quantity.kind: outcome
reported.result: inactive
--
compound: COc1ccc([C@@H]2CC(=O)c3c(O)cc(O[C@@H]4O[C@H](CO[C@@H]5O[C@@H](C)[C@H](O)[C@@H](O)[C@@H]5O)[C@@H](O)[C@H](O)[C@@H]4O)cc3O2)cc1O
quantity.kind: outcome
reported.result: inactive

###

test: qHTS for Inhibitors of the Functional Ribonucleoprotein Complex (vRNP) of Lymphocytic Choriomeningitis Arenaviruses (LCMV): Viability assay - alamar blue signal for LCMV Primary Screen (AID 1347085); conditions: alamar blue viability counter-screen, LCMV vRNP screen cells; series mostly up to 57.5 µM; note: nearly all actives have a fitted effect of over 80% in size
Inconclusive results are not listed. The source made the active and inactive calls. Calls come from the whole dose curve; tested in HEK293 reporter line.
Classes to choose from: TRUE (active), FALSE (inactive)

Request: What classification did CCCCCCCCCCCCCCCCCCNC(=O)OCC(COP(=O)([O-])OCC[n+]1ccsc1)OC (stereo not drawn) end up with in this test?
Result: FALSE

Request: What classification did CC(C=CC=C(C)C=CC1=C(C)CCCC1(C)C)=CC=CC=C(C)C=CC=C(C)C=CC1=C(C)CCCC1(C)C end up with in this test?
Result: FALSE

Request: What classification did O=c1[nH]cnc2c1ncn2C1OCC(O)C(O)C1O (stereo not drawn) end up with in this test?
Result: FALSE

Request: What classification did Cc1c(CCOc2ccc(C(=O)O)cc2)c2cc(Cl)ccc2n1C(c1ccccc1)c1ccccc1 end up with in this test?
Result: FALSE

Request: What classification did CCc1cnn2c(NCc3ccc[n+]([O-])c3)cc(N3CCCC[C@@H]3CCO)nc12 end up with in this test?
Result: TRUE

Request: What classification did CC(=O)OC[C@]12CCC(C)=C[C@H]1O[C@@H]1[C@H](O)[C@@H](OC(C)=O)[C@@]2(C)[C@]12CO2 end up with in this test?
Result: FALSE

Request: What classification did COc1cccc2c1C(=O)c1c(O)c3c(c(O)c1C2=O)C[C@@](O)(C(=O)CO)C[C@@H]3O[C@H]1C[C@H](N)[C@H](OC2CCCCO2)[C@H](C)O1 (stereo partly drawn) end up with in this test?
Result: TRUE

Request: What classification did CC1(C)C2CC[C@]3(C)C(CC=C4[C@@H]5C[C@@](C)(CO)[C@@H]6C[C@@]5(CC[C@]43C)C(=O)O6)[C@@]2(C)CC[C@@H]1O (stereo partly drawn) end up with in this test?
Result: FALSE
